Hello, the source for this data is paper PMC6222509, in case you need it.

Experiment: lipophilicity by isocratic RP-HPLC (log k, k, log kw, S)
Type: physicochemical
Settings: mobile phase MeOH/water 85:15 (v/v)
Label Condition met for high-side log k (at or above 0.6) and Condition not met for low-side log k (below it).

The examples below pair each entry with its known result.
CCCCOc1ccccc1NC(=O)OC(CN(CCC)CCC)CN1CCCCCC1 (stereo not shown) [1i]
Condition met
CCCCCCCOc1cccc(NC(=O)OC(CN(CCC)CCC)CN2CCCCCC2)c1.Cl.Cl (stereo not shown) [1p]
Condition met
CCCCCCOc1ccccc1NC(=O)OC(CN(CCC)CCC)CN1CCCCCC1 (stereo not shown) [1k]
Condition met
CCCCCCCOc1cccc(NC(=O)OC(CN(CCC)CCC)CN2CCCCCC2)c1.O=C(O)C(=O)O (stereo not shown) [1l]
Condition met
CCCCOc1cccc(NC(=O)OC(CN(CCC)CCC)CN2CCCC2)c1 (stereo not shown) [1e]
Condition not met
CCCCCCOc1cccc(NC(=O)OC(CN(CCC)CCC)CN2CCCCCC2)c1.Cl.Cl (stereo not shown) [1o]
Condition met
CCCCCCOc1ccccc1NC(=O)OC(CN(CCC)CCC)CN1CCCC1 (stereo not shown) [1c]
Condition met
CCCCCOc1cccc(NC(=O)OC(CN(CCC)CCC)CN2CCCC2)c1.Cl.Cl (stereo not shown) [1f]
Condition not met

-- ask For this compound, is measured log k 0.6 or higher? CCCCCOc1ccccc1NC(=O)OC(CN(CCC)CCC)CN1CCCC1 (stereo not shown) [1b]
-- reply Condition met

-- ask For this compound, is measured log k 0.6 or higher? CCCCCOc1cccc(NC(=O)OC(CN(CCC)CCC)CN2CCCCCC2)c1.Cl.Cl (stereo not shown) [1n]
-- reply Condition met

-- ask For this compound, is measured log k 0.6 or higher? CCCCCCCOc1cccc(NC(=O)OC(CN(CCC)CCC)CN2CCCC2)c1.Cl.Cl (stereo not shown) [1h]
-- reply Condition met

-- ask For this compound, is measured log k 0.6 or higher? CCCCOc1ccccc1NC(=O)OC(CN(CCC)CCC)CN1CCCC1 (stereo not shown) [1a]
-- reply Condition not met

-- ask For this compound, is measured log k 0.6 or higher? CCCCCOc1ccccc1NC(=O)OC(CN(CCC)CCC)CN1CCCCCC1.O=C(O)C(=O)O (stereo not shown) [1j]
-- reply Condition met

-- ask For this compound, is measured log k 0.6 or higher? CCCCCCCOc1ccccc1NC(=O)OC(CN(CCC)CCC)CN1CCCC1.Cl.Cl (stereo not shown) [1d]
-- reply Condition met

-- ask For this compound, is measured log k 0.6 or higher? CCCCOc1cccc(NC(=O)OC(CN(CCC)CCC)CN2CCCCCC2)c1 (stereo not shown) [1m]
-- reply Condition not met
